Tested on: Bacillus subtilis
assay: Antibacterial activity against Bacillus subtilis after 24 hr by disk diffusion method
Format: functional
assay_readout: diameter of the inhibition zone (DIZ) (mm)

INSERT INTO measurements (compound, experimental_value) VALUES
  ('O=C(NCC(=O)N1c2ccccc2Sc2ccccc21)NN1C(=O)C(Cl)C1c1ccc(O)cc1 (stereo not given)', 10),
  ('COc1cc(C2C(Cl)C(=O)N2NC(=O)NCC(=O)N2c3ccccc3Sc3ccccc32)ccc1O (stereo not given)', 6),
  ('O=C(NCC(=O)N1c2ccccc2Sc2ccccc21)NN1C(=O)C(Cl)C1c1ccc([N+](=O)[O-])cc1 (stereo not given)', 5),
  ('O=C(NCC(=O)N1c2ccccc2Sc2ccccc21)NN1C(=O)C(Cl)C1c1cccc(Cl)c1 (stereo not given)', 11),
  ('O=C(NCC(=O)N1c2ccccc2Sc2ccccc21)NN1C(=O)C(Cl)C1c1cccc(F)c1 (stereo not given)', 11),
  ('COc1ccc(C2C(Cl)C(=O)N2NC(=O)NCC(=O)N2c3ccccc3Sc3ccccc32)cc1 (stereo not given)', 7),
  ('CN(C)c1ccc(C2C(Cl)C(=O)N2NC(=O)NCC(=O)N2c3ccccc3Sc3ccccc32)cc1 (stereo not given)', 8),
  ('O=C(O)c1cn(C2CC2)c2cc(N3CCNCC3)c(F)cc2c1=O [CIPROFLOXACIN]', 25),
  ('O=C(NCC(=O)N1c2ccccc2Sc2ccccc21)NN1C(=O)C(Cl)C1c1ccc(Cl)cc1 (stereo not given)', 7),
  ('O=C(NCC(=O)N1c2ccccc2Sc2ccccc21)NN1C(=O)C(Cl)C1c1ccccc1Cl (stereo not given)', 7);
